Cited source for all entries: patent EP0533240A2

Here, each record is paired with measured inhibition at 1 µM data.
- target-or-system: uterine OT receptors (Rattus norvegicus, UniProt P70536)
- Construct: from tissue; host or cells: uterus of DES-treated rats, crude membrane preparation
- procedure-details: [3H]Oxytocin radioligand binding assay, crude uterine membrane preparation
- Set-up: species or system rats
- conditions-used: at 1,000 nM compound; 1 nM [3H]OT, rat uterine membranes
reported-endpoint: inhibition at 1 µM (%)

molecule	target-or-system	unit-string	value-observed
Cc1ccccc1N1CCN(S(=O)(=O)CC23CCC(CC2=CCN)C3(C)C)CC1 (stereo not shown)	uterine OT receptors (Rattus norvegicus, UniProt P70536)	%	64
Cc1ccccc1N1CCN(S(=O)(=O)CC23CCC(CC24CO4)C3(C)C)CC1 (stereo not shown)	uterine OT receptors (Rattus norvegicus, UniProt P70536)	%	75
Cc1ccccc1N1CCN(S(=O)(=O)CC23CCC(CC2O)C3(C)C)C(C)C1 (stereo not shown)	uterine OT receptors (Rattus norvegicus, UniProt P70536)	%	37
Cc1ccccc1N1CCN(S(=O)(=O)CC23CCC(C=C2C(=O)NCCc2c[nH]cn2)C3(C)C)CC1 (stereo not shown)	uterine OT receptors (Rattus norvegicus, UniProt P70536)	%	78

---

Here, each record is paired with measured pIC50 data.
Sequence of the target: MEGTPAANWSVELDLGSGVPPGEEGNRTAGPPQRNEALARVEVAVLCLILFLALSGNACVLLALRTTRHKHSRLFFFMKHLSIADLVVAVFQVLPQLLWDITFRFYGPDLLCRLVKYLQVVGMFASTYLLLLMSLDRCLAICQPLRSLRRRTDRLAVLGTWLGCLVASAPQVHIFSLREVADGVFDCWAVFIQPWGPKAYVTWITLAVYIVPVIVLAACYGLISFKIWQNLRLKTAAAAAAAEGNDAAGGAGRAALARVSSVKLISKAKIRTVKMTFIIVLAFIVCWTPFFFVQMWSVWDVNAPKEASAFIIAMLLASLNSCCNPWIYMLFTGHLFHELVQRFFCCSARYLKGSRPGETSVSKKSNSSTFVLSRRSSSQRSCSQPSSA
pIC50: −log10 of the molar value.

compound	pIC50
COC(=O)CCN1CCCC(C(=O)NCC(C)C2(O)CC3CCC2(CS(=O)(=O)N2CCN(c4ccccc4C)CC2)C3(C)C)C1 (centres unmarked)	7.52
Cc1ccccc1N1CCN(S(=O)(=O)CC23CCC(CC2NC(=O)C(C)c2c[nH]cn2)C3(C)C)CC1 (centres unmarked)	6.74
Cc1ccccc1N1CCN(S(=O)(=O)CC23CCC(CC2(O)C(C)CNC(=O)C2CCCN2)C3(C)C)CC1 (centres unmarked)	7.47
Cc1ccccc1N1CCN(S(=O)(=O)CC23CCC(CC2(O)C(C)CNC(=O)C2CCCN(CCC(=O)O)C2)C3(C)C)CC1 (centres unmarked)	7.60
COC(=O)CCN1CCCC1C(=O)NCC(C)C1(O)CC2CCC1(CS(=O)(=O)N1CCN(c3ccccc3C)CC1)C2(C)C (centres unmarked)	7.92
